# System: HS68 cells
# experiment.summary: G1 arrest (cellular G1 and S-phase) assay, propidium iodide flow cytometry
# Type: cell-based, human
# reported.conditions: Homo sapiens, Hs68, HS68 cells
reported.metric: EC50 (nM)

molecule	experimental.system	EC50 [nM]
CC(C)N1CCN(c2ccc(Nc3ncc4cc5n(c4n3)C3(CCCCC3)CNC5=O)nn2)CC1 [TT]	HS68 cells	75
CC(C)N1CCN(c2ccc(Nc3ncc4cc5n(c4n3)C3(CCCC3)CNC5=O)nc2)CC1C (stereo not shown) [GGG]	HS68 cells	350
CC1CN(c2ccc(Nc3ncc4cc5n(c4n3)C3(CCCCC3)CNC5=O)nc2)CCN1CC(C)(C)O (stereo not shown) [W]	HS68 cells	160
CC(C)N1CCN(c2ccc(Nc3ncc4cc5n(c4n3)C3(CCCC3)CNC5=O)nn2)CC1 [RRR]	HS68 cells	400
CCC(C)[C@@H]1CNC(=O)c2cc3cnc(Nc4ccc(N5CCNCC5)cn4)nc3n21 (stereo partly shown) [VVV]	HS68 cells	300

I: C[C@@H](O)CN1CCN(c2ccc(Nc3ncc4cc5n(c4n3)C3(CCCCC3)CNC5=O)nc2)CC1 [S]
II: CN(C)C1CCN(c2ccc(Nc3ncc4cc5n(c4n3)C3(CCCC3)CNC5=O)nn2)CC1 [TTT]
III: O=C1NCC2(CCCCC2)n2c1cc1cnc(Nc3ccc(N4CCC(N5CCCCC5)CC4)cn3)nc12 [N]
Falling order of EC50, please. Reply with the item labels sorted in the order that was asked for.
II, I, III
(II: 350 nM, I: 150 nM, III: 25 nM)

###

# Tested on: MCF7 (breast adenocarcinoma, Rb-positive)
# experiment.summary: Cellular proliferation assay (CellTiter-Glo), MCF7
# Assay type: cell-based
# reported.conditions: Homo sapiens, MCF7, 144 h, cell viability after six days
# Experimental: Further cellular proliferation assays were conducted using the following cancer cell lines: MCF7 (breast adenocarcinoma—Rb-positive), ZR-75-1 (breast ductal carcinoma—Rb-positive), H69 (human small cell lung cancer—Rb-negative) cells, or A2058 (human metastatic melanoma cells—Rb-negative). […] Plates were read on BioTek (Winooski, Vermont) Syngergy2 multi-mode plate reader. […]
reported.metric: EC50 (nM)

sample.smiles	experimental.system	measurement.units	numeric.result
C[C@@H]1CN(c2ccc(Nc3ncc4cc5n(c4n3)C3(CCCCC3)CNC5=O)nc2)C[C@H](C)N1C[C@@H](C)O	MCF7 (breast adenocarcinoma, Rb-positive)	nM	73
CCOCCN1CCN(c2ccc(Nc3ncc4cc5n(c4n3)C3(CCCC3)CNC5=O)nc2)CC1	MCF7 (breast adenocarcinoma, Rb-positive)	nM	134
O=C1NCC2(CCCCC2)n2c1cc1cnc(Nc3ccc(C(=O)N4CCN(C5CCC5)CC4)cn3)nc12	MCF7 (breast adenocarcinoma, Rb-positive)	nM	96

###

# Test system: HS68 cells
# experiment.summary: G1 arrest (cellular G1 and S-phase) assay, propidium iodide flow cytometry
# Format: cell-based, human
# reported.conditions: Homo sapiens, Hs68, HS68 cells
reported.metric: EC50 (µM)

Below: 5 molecules and their reported EC50.
molecule	numeric.result
CCN(CC)C1CCN(c2ccc(Nc3ncc4cc5n(c4n3)C3(CCCC3)CNC5=O)nc2)CC1	0.25
C[C@@H]1CN(c2ccc(Nc3ncc4cc5n(c4n3)C3(CCCCC3)CNC5=O)nc2)C[C@H](C)N1C	0.1
C[C@H](O)CN1[C@H](C)CN(c2ccc(Nc3ncc4cc5n(c4n3)C3(CCCCC3)CNC5=O)nc2)C[C@@H]1C	0.11
CCN(CC)C1CCN(C2CCN(c3ccc(Nc4ncc5cc6n(c5n4)C4(CCCCC4)CNC6=O)nc3)CC2)C1 (centres unmarked)	0.09
O=C1NCC2(CCCCC2)n2c1cc1cnc(Nc3ccc(C(=O)N4CCN(C5CCC5)CC4)cn3)nc12	0.125

A: O=C1NCC2(CCCC2)n2c1cc1cnc(Nc3ccc(N4CCOCC4)nn3)nc12
B: O=C1NCC2(CCCC2)n2c1cc1cnc(Nc3ccc(C(=O)N4CCN(CC5CC5)CC4)cn3)nc12
Given A and B , report the one with the higher recorded EC50. Output the label that corresponds to your choice.
A

###

# Test system: HS68 cells
# experiment.summary: G1 arrest (cellular G1 and S-phase) assay, propidium iodide flow cytometry
# Assay type: cell-based, human
# reported.conditions: Homo sapiens, Hs68, HS68 cells
reported.metric: EC50 (nM)

compound	measurement.units	numeric.result
O=C1NCC2(CCCC2)n2c1cc1cnc(Nc3ccc(N4CCC(N5CCCCC5)CC4)cn3)nc12	nM	250
CCN(CC)C1CCN(C(=O)c2ccc(Nc3ncc4cc5n(c4n3)C3(CCCCC3)CNC5=O)nc2)C1 (stereo not shown)	nM	90
CC(C)C[C@@H]1CNC(=O)c2cc3cnc(Nc4ccc(N5CCNCC5)cn4)nc3n21	nM	300
CC(C)N1CCN(C(=O)c2ccc(Nc3ncc4cc5n(c4n3)C3(CCCCC3)CNC5=O)nc2)CC1	nM	40

a: CC1CN(c2ccc(Nc3ncc4cc5n(c4n3)C3(CCCC3)CNC5=O)nc2)CCN1CC1CC1 (stereo not shown)
b: CCN1[C@H](C)CN(c2ccc(Nc3ncc4cc5n(c4n3)C3(CCCCC3)CNC5=O)nc2)C[C@@H]1C
c: CC(C)N1CCN(Cc2ccc(Nc3ncc4cc5n(c4n3)C3(CCCCC3)CNC5=O)nc2)CC1
Please order the records by their reported EC50, lowest number first. Answer format: list of labels, ordered as asked.
b, c, a

P: C[C@H]1CN(c2ccc(Nc3ncc4cc5n(c4n3)C3(CCCCC3)CNC5=O)nc2)CCN1
Q: CC1CN(c2ccc(Nc3ncc4cc5n(c4n3)C3(CCCC3)CNC5=O)nc2)CCN1CCC(C)(C)C (stereo not shown)
Field: lower recorded EC50 (choose P or Q ) Reply briefly: the label of your chosen item.
P
(P: 22 nM, Q: 275 nM)

P: CN(C)C1CCN(c2ccc(Nc3ncc4cc5n(c4n3)C3(CCCCC3)CNC5=O)nn2)CC1
Q: CC(C)[C@H]1CNC(=O)c2cc3cnc(Nc4ccc(N5CCNCC5)cn4)nc3n21
EC50 comparison. Which is larger, P or Q ? Lab note: record the label of whichever item you select.
Q
(Q: 300 nM, P: 80 nM)
